pIC50 reference
- SYSTEM: Grp94 (Canis lupus familiaris)
- Sequence (P41148 with tags, fused parts or gaps DELINS287-327GGGG): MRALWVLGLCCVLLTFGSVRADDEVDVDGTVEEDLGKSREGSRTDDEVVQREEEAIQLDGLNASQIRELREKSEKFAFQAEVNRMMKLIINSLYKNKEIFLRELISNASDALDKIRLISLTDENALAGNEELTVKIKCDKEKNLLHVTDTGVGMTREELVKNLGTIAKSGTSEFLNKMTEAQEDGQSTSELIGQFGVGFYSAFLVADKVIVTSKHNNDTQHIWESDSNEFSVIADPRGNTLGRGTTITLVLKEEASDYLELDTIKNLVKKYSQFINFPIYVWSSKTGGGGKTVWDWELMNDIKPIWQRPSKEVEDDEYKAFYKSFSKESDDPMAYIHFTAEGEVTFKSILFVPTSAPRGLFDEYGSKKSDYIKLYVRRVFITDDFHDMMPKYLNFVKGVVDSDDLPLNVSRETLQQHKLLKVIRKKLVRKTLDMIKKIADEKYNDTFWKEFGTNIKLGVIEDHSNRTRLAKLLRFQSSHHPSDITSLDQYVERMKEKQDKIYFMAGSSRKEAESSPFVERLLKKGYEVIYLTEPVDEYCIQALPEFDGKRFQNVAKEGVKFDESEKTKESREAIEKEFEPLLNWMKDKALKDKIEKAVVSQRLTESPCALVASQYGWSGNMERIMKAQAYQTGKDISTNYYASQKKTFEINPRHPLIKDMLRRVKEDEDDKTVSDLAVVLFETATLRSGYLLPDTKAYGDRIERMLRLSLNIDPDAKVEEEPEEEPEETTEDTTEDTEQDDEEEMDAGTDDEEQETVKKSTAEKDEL
- CONDITION_DESCRIPTION: read-out: Grp94; FP competition, 6 nM Cy3B-GM, 10 nM protein, 4° C. for 24 h
Scale: pIC50 equals -log10([C]), with [C] in mol/L.

Here are 2 compounds together with their reported answers.
1. Nc1ncn(Cc2ccccc2)c2nc(Sc3cc(Cl)cc(Cl)c3)nc1-2 [PDP-107B] | 4.94
2. C#CCCCn1c(Sc2cc(Cl)cc(Br)c2)nc2c(N)ncnc21 | 6.66

I have this compound here, CN1CCN(CCn2c(Sc3cc(Cl)cc(Cl)c3)nc3c(N)ncnc32)CC1 [SO-III-39A] , and I need its recorded pIC50.
6.43

I have this compound here, C#CCN(CCO)CCn1c(Sc2ccc(Cl)cc2Cl)nc2c(N)ncnc21 , and I need its recorded pIC50.
6.22

I have this compound here, Nc1ncnc2c1nc(Sc1ccc(Cl)cc1Cl)n2CCc1ccccc1Cl , and I need its recorded pIC50.
5.66

I have this compound here, C#CCCCn1c(Sc2cc(Cl)ccc2C(F)(F)F)nc2c(N)ncnc21 , and I need its recorded pIC50.
6.30

I have this compound here, COc1ccc(-c2cc(Cl)cc(Sc3nc4c(N)ncnc4n3CCCNC(C)C)c2)cc1 , and I need its recorded pIC50.
5.57
